Target: T1, Monkey 4-1BB extracellular region recombinant protein (his-tag) (monkey)
T1 construct: extracellular domain; also called Monkey4-1BB, his-tag
Experiment: ELISA, coated monkey 4-1BB-his 200 ng/well; antibody 0.041 µg/ml
Value type: absorbance at 450 nm
Could you respond with only the numeric value?

Examples with answers:
137-16 VHH-hFc recombinant antibody (Fc fusion, VHH fragment inserted into vector pFclG with human IgG1 Fc tag, expressed in HEK293F; Preparation had non-specific bands, purity >70%; also called CD137-16; not shown: human IgG1 Fc tag of the eukaryotic expression vector pFclG) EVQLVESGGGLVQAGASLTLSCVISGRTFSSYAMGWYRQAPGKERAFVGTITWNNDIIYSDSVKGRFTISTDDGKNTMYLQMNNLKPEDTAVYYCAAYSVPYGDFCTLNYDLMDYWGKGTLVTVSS: 0.581
137-36 VHH-hFc recombinant antibody (Fc fusion, VHH fragment inserted into vector pFclG with human IgG1 Fc tag, expressed in HEK293F; not shown: human IgG1 Fc tag of the eukaryotic expression vector pFclG) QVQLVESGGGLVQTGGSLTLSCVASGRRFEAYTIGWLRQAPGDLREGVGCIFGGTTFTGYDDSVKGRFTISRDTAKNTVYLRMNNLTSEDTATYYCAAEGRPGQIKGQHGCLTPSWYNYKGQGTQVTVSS: 0.354
137-18 VHH-hFc recombinant antibody (Fc fusion, VHH fragment inserted into vector pFclG with human IgG1 Fc tag, expressed in HEK293F; also called CD137-18; not shown: human IgG1 Fc tag of the eukaryotic expression vector pFclG) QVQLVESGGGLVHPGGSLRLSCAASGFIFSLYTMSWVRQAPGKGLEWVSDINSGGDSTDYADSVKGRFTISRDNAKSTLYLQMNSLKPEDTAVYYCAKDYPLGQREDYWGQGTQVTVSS: 0.392

Continue with the next binder.
**Query** Return reported absorbance at 450 nm; argument: 137-12 VHH-hFc recombinant antibody (Fc fusion, VHH fragment inserted into vector pFclG with human IgG1 Fc tag, expressed in HEK293F; not shown: human IgG1 Fc tag of the eukaryotic expression vector pFclG) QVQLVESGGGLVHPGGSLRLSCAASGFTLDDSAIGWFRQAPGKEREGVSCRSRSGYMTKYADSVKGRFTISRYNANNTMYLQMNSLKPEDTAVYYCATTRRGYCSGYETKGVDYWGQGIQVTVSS
**Result** 0.37
